Origin of the recorded values: patent US11945798B2

The following molecules are shown together with reported IC50 values.
- subject-of-test: EGFR del19/C797S (Homo sapiens, UniProt P00533, C797S/DEL746-750)
- Sequence (P00533 with tags, fused parts or gaps DEL746-750/C797S): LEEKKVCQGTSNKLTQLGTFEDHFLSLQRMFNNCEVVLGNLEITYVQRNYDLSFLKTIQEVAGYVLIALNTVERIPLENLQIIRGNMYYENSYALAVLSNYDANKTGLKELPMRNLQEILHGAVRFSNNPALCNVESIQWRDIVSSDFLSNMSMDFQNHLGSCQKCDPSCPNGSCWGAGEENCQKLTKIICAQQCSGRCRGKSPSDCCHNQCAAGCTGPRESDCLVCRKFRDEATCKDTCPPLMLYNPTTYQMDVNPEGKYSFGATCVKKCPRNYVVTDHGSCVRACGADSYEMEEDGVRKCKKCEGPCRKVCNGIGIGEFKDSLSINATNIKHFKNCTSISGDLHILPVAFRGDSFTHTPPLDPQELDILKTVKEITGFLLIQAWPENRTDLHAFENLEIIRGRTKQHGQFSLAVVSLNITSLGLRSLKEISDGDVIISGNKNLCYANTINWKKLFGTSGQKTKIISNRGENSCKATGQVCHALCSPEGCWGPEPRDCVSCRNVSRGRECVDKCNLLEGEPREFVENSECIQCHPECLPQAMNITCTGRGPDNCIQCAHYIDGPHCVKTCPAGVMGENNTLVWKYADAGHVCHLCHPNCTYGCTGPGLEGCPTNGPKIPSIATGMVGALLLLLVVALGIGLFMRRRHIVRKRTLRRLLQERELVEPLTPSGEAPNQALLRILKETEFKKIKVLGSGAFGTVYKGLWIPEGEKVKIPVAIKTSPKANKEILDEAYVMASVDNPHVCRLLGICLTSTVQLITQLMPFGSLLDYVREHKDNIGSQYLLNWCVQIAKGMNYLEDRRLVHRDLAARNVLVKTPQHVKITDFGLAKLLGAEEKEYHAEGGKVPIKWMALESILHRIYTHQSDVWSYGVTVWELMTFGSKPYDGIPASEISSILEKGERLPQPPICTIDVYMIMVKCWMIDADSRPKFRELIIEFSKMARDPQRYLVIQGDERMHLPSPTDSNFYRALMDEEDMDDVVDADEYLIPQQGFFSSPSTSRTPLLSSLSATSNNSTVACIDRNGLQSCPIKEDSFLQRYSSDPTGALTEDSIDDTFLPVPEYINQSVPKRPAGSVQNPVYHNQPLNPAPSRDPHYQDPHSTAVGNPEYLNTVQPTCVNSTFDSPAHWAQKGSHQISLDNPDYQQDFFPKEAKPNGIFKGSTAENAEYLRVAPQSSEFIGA
- experiment-summary: Biochemical EGFR kinase assay (Lance Ultra TR-FRET), del19/C797S
- measurement-context: IC50 del19/C797S (nM) 100 μM ATP, 100 μM ATP
- Description: Biochemical EGFR kinase assays were conducted using Lance Ultra time-resolved fluorescence resonance energy transfer (TR-FRET) technology from Perkin-Elmer. […] Each kinase reactions were incubated at room temperature for 1 hour and then stopped by the addition of 4 μL of stop solution (10 mM EDTA). […] After 60 minutes incubation at room temperature the LANCE signal was measured on an EnVision Multilabel Reader (Perkin-Elmer). […]
assay-readout: IC50 (nM)

>>> df
                                   molecule                           subject_of_test  assay_readout  recorded_number
0  C[C@]1(O)CC[C@@H](Nc2cc(Nc3ccnc(-c4cnn(S(=O)(=O)C5CC5)c4)n3)ncc2C(=O)NCCF)CC1 [Example 76]  EGFR del19/C797S (Homo sapiens, UniProt P00533, C797S/DEL746-750)           IC50              2.3
1  O=C(c1cnc(Nc2ccnc(-c3cnn(S(=O)(=O)C4CC4)c3)n2)cc1NC1CCC(NCCO)CC1)C1CC1 (stereo not drawn) [Example 52]  EGFR del19/C797S (Homo sapiens, UniProt P00533, C797S/DEL746-750)           IC50               26
2  CN(C)CCN1CCC(Nc2cc(Nc3ccnc(-c4cnn(S(=O)(=O)C5CC5)c4)n3)ncc2C(=O)C2CC2)CC1 [Example 37]  EGFR del19/C797S (Homo sapiens, UniProt P00533, C797S/DEL746-750)           IC50             79.9
3  O=C(c1cnc(Nc2ccnc(-c3cnn(S(=O)(=O)C4CC4)c3)n2)cc1N[C@H]1CC[C@@H](NCCF)CC1)C(F)F [Example 51]  EGFR del19/C797S (Homo sapiens, UniProt P00533, C797S/DEL746-750)           IC50             18.9
4  O=C(c1cnc(Nc2ccnc(-c3cnn(S(=O)(=O)C4CC4)c3)n2)cc1NC1CCC(F)(CO)CC1)C1CC1 (stereo not drawn) [Example 87]  EGFR del19/C797S (Homo sapiens, UniProt P00533, C797S/DEL746-750)           IC50             25.3
5  CC(C)Nc1cc(Nc2ccnc(-c3cnn(S(=O)(=O)C4CC4)c3)n2)ncc1C1=CCCCO1 [Example 84]  EGFR del19/C797S (Homo sapiens, UniProt P00533, C797S/DEL746-750)           IC50              107

---

The following compounds are shown together with reported IC50 values.
- subject-of-test: EGFR L858R/C797S (Homo sapiens, UniProt P00533, C797S/L858R)
- Sequence (P00533 25-1210 C797S/L858R): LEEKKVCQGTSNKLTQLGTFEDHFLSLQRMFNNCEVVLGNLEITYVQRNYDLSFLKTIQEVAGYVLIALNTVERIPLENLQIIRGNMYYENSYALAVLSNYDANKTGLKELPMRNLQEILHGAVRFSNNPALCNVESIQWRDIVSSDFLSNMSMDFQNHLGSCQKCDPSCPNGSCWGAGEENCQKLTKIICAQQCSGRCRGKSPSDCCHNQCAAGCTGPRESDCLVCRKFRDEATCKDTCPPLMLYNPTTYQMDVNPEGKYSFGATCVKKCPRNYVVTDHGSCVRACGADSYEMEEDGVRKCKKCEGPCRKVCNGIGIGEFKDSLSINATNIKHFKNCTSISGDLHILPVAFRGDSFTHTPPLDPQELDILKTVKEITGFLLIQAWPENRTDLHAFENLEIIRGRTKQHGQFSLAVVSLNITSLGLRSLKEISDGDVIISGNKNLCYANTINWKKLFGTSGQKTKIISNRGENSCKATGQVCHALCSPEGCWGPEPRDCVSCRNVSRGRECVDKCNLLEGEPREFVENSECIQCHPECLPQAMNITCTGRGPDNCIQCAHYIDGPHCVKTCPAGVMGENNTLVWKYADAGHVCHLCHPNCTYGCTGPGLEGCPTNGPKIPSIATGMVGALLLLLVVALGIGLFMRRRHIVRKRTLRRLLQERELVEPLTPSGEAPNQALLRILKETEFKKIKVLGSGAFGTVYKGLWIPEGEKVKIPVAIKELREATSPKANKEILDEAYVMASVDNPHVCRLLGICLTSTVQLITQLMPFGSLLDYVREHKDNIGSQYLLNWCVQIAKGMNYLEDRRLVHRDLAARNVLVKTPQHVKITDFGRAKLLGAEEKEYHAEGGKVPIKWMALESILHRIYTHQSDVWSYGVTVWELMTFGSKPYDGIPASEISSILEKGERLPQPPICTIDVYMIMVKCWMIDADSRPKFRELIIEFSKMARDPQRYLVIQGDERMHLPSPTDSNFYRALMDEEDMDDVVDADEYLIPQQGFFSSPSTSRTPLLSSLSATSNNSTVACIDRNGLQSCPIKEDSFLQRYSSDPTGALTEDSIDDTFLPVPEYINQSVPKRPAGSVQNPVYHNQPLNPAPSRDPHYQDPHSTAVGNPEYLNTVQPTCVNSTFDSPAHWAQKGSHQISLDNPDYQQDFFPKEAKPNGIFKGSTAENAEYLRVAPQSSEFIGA
- experiment-summary: Biochemical EGFR kinase assay (Lance Ultra TR-FRET), L858R/C797S
- measurement-context: IC50 L858R/C797S (nM) 100 μM ATP, 100 μM ATP
assay-readout: IC50 (nM)

>>> print(df.to_string())
                                item_smiles  recorded_number
0  O=C(c1cnc(Nc2ccnc(-c3cnn(S(=O)(=O)C4CC4)c3)n2)cc1N[C@H]1CCC[C@H](O)C1)C1CC1             33.2
1  C[C@]1(O)CC[C@@H](Nc2cc(Nc3ccnc(-c4cnn(S(=O)(=O)C5CC5)c4)n3)ncc2C(=O)C2CC2)CC1              6.5
2  O=C(N[C@H]1CC[C@H](O)CC1)c1cnc(Nc2ccnc(-c3cnn(S(=O)(=O)C4CC4)c3)n2)cc1N[C@H]1CC[C@@H](NCCF)CC1              170
3  O=C(NCCF)c1cnc(Nc2ccnc(-c3cnn(S(=O)(=O)C4CC4)c3)n2)cc1N[C@H]1CC[C@@H](NCCF)CC1              145
